B1: mRNA-splicing (parent)
chain: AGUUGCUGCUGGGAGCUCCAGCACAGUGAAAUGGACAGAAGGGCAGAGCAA

- Variants of: B1
- experiment: exon inclusion enrichment index; higher = more inclusion; WT1 exon 5 minigene, HEK293
assay-readout: exon inclusion enrichment index

Consider the following illustrative entries.
INSERT INTO assay_data (residue_codes, val) VALUES
  ('AGUUAGGGAUACGAGCUCCAGCACAGUGAAAUGGACAGAAGGGCAGAGCAA', 0.00102),
  ('AGUUCGCGCCGGGAGCUCCAGCACAGUGAAAUGGACUAAAGGGCAGAGCAA', 1.78),
  ('AGUUGAAGAAGGGAUCUCCAGCACAGUGAAAUGGACAGAAGGGCAGAGCAA', 0.786);

What value of exon inclusion enrichment index has been recorded for this entry: "AGUUAGGGAUGGGUGCUCCAGCACAGUGAAAUGGACAGAAGGGCAGAGCAA"
0.000641

What value of exon inclusion enrichment index has been recorded for this entry: "AGUUGACGACGGGUACUCCAGCACAGUGAAAUGGACAGAAGGGCAGAGCAA"
2.06

What value of exon inclusion enrichment index has been recorded for this entry: "AGUUAGGCUUGGGAGCUCCAGCACAGUGAAAUGGACAGAAGGGCAGAGCAA"
0.00108

What value of exon inclusion enrichment index has been recorded for this entry: "AGUUCGCGCCGGGAGCUCCAGCACAGUGAAAUGGACAGAACAGCAGAGCAA"
3

What value of exon inclusion enrichment index has been recorded for this entry: "AGUCGUUCUCGGGAGCUCCAGCACAGUGAAAUGGACAGAAGGGCAGAGCAA"
2.37
